Each recorded value in this set is attributed to paper PMC3351444.

# SYSTEM: human CMKLR1 (Homo sapiens, UniProt Q99788)
# Construct: host or cells: HEK293A (Invitrogen), stably expressing human Gα15
# Sequence (Q99788 whole entry): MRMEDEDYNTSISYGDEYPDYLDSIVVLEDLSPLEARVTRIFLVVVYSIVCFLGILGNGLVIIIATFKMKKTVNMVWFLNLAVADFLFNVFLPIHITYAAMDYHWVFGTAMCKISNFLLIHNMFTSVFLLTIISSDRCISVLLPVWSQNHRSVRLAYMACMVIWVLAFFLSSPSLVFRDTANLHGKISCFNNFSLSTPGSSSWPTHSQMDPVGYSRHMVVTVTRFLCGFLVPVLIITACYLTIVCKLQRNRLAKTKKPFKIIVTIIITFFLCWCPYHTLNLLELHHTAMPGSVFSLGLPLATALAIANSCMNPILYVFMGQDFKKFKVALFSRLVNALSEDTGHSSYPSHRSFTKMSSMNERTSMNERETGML
# TEST NAME: Ca2+ mobilization (CellLux imaging) agonist assay in HEK293A cells expressing CMKLR1 and Gα15
# Format: cell-based
# EXPERIMENTAL PARAMETERS: Ca2+ mobilization, CMKLR1; decimal comma; NR where no EC50 is given; read-out: EC50
# Method: HEK293A cells (Invitrogen) expressing CMKLR1 and Gα15 were seeded at 5*10^4 cells/well in a poly-D-lysine coated 96-well black well/clear bottom plate (BD Falcon) and cultured overnight. From eighteen to twenty-four hours later, cells were loaded with FLUO4-AM (Invitrogen). […] Fluorescence data was generated in duplicate and experiments were repeated for at least three times. […] Signals were normalized to background fluorescence. […]
pEC50: −log10 of the molar value. Square brackets hold non-standard residues; d marks the D form. Peptide text beside a SMILES is read from it.
Reported pEC50 by item:

COMPOUND | pEC50
C[C@H](NC(=O)[C@H](Cc1ccc(O)cc1)NC(=O)[C@H](CCC(N)=O)NC(=O)[C@@H](CO)NC(=O)[C@H](Cc1ccccc1)NC(=O)[C@H](C)NC(=O)[C@@H](N)Cc1ccc(O)cc1)C(=O)N[C@@H](Cc1ccccc1)C(=O)N[C@H](CO)C(=O)O [compound 92] (H-YAF[dS]QYAF[dS]-OH; N-terminus assumed) | 7.22
NC(=O)CC[C@H](NC(=O)CNC(=O)[C@@H]1CCCN1C(=O)[C@H](Cc1ccccc1)NC(=O)[C@H](N)Cc1ccc(O)cc1)C(=O)N[C@@H](Cc1ccc(O)cc1)C(=O)N[C@H](Cc1c[nH]c2ccccc12)C(=O)N[C@@H](Cc1ccccc1)C(=O)N[C@H](Cc1ccccc1)C(=O)O [compound 133] (H-[dY]FPGQY[dW]F[dF]-OH; N-terminus assumed) | 7.17
C[C@H](NC(=O)[C@H](Cc1ccccc1)NC(=O)[C@H](CCC(N)=O)NC(=O)CNC(=O)[C@@H]1CCCN1C(=O)[C@@H](N)Cc1ccccc1)C(=O)N[C@@H](Cc1ccccc1)C(=O)N[C@H](CO)C(=O)N[C@H](CO)C(=O)O [compound 105] (H-FPGQFAF[dS][dS]-OH; N-terminus assumed) | 6.21
C[C@H](NC(=O)[C@@H](Cc1ccccc1)NC(=O)[C@H](CCC(N)=O)NC(=O)CNC(=O)[C@@H]1CCCN1C(=O)[C@@H](Cc1ccc(O)cc1)NC(=O)[C@H](N)Cc1ccc(O)cc1)C(=O)N[C@H](Cc1ccc(O)cc1)C(=O)N[C@H](CO)C(N)=O [compound 8] (H-[dY][dY]PGQ[dF]A[dY][dS]-NH2; N-terminus assumed) | 5.73
CSCC[C@H](NC(=O)[C@H](N)Cc1ccc(O)cc1)C(=O)N1CCC[C@H]1C(=O)NCC(=O)N[C@@H](CCC(N)=O)C(=O)N[C@@H](Cc1ccc(O)cc1)C(=O)N[C@@H](C)C(=O)N[C@@H](Cc1ccccc1)C(=O)N[C@@H](CO)C(=O)O [compound 85] (H-[dY]MPGQYAFS-OH; N-terminus assumed) | 7.93
CC(C)C[C@H](N)C(=O)N[C@H](Cc1ccccc1)C(=O)NCC(=O)N1CCC[C@@H]1C(=O)N[C@@H](Cc1ccc(O)cc1)C(=O)NCC(=O)N[C@H](Cc1c[nH]c2ccccc12)C(=O)N[C@H](CO)C(=O)N[C@@H](C)C(=O)O [compound 138] (H-L[dF]G[dP]YG[dW][dS]A-OH; N-terminus assumed) | 6.98
CC(C)C[C@@H](NC(=O)[C@H](CCCNC(=N)N)NC(=O)[C@@H](N)Cc1ccc(O)cc1)C(=O)NCC(=O)N[C@@H](CCC(N)=O)C(=O)N[C@@H](Cc1ccc(O)cc1)C(=O)N[C@H](Cc1c[nH]c2ccccc12)C(=O)N[C@H](CC(=O)O)C(=O)N[C@H](Cc1ccccc1)C(=O)O [compound 129] (H-YR[dL]GQY[dW][dD][dF]-OH; N-terminus assumed) | 7.38
CC(C)C[C@H](NC(=O)[C@@H](N)Cc1ccc(O)cc1)C(=O)N1CCC[C@H]1C(=O)NCC(=O)N[C@@H](CCC(N)=O)C(=O)N[C@@H](Cc1ccc(O)cc1)C(=O)N[C@@H](C)C(=O)N[C@@H](Cc1ccccc1)C(=O)N[C@H](Cc1ccccc1)C(=O)O [compound 80] (H-YLPGQYAF[dF]-OH; N-terminus assumed) | 9.68
NC(=O)CC[C@H](NC(=O)CNC(=O)[C@@H]1CCCN1C(=O)[C@@H](Cc1ccc(O)cc1)NC(=O)[C@H](Cc1ccc(O)cc1)NC(=O)[C@H](CCC(N)=O)NC(=O)[C@H](N)Cc1ccccc1)C(=O)N[C@@H](Cc1ccc(O)cc1)C(=O)N[C@@H](Cc1ccc(O)cc1)C(=O)O [compound 137] (H-[dF]QY[dY]PGQYY-OH; N-terminus assumed) | 6.99
C[C@H](NC(=O)CN)C(=O)N[C@@H](Cc1ccccc1)C(=O)N[C@@H](CCC(N)=O)C(=O)N[C@@H](Cc1ccccc1)C(=O)N[C@H](CO)C(=O)N[C@@H](C)C(=O)N[C@@H](Cc1ccccc1)C(=O)N[C@H](CO)C(=O)O [compound 100] (H-GAFQF[dS]AF[dS]-OH; N-terminus assumed) | 6.89
C[C@H](NC(=O)[C@H](Cc1ccc(O)cc1)NC(=O)[C@H](CCC(N)=O)NC(=O)CNC(=O)[C@H](Cc1ccccc1)NC(=O)[C@H](Cc1ccc(O)cc1)NC(=O)[C@H](N)CS)C(=O)N[C@@H](Cc1ccccc1)C(=O)N[C@H](CO)C(=O)O [compound 113] (H-[dC]YFGQYAF[dS]-OH; N-terminus assumed) | 5.66
CC(C)C[C@H](NC(=O)[C@@H](N)Cc1ccc(O)cc1)C(=O)N1CCC[C@H]1C(=O)N[C@H](Cc1ccc(O)cc1)C(=O)N[C@H](CCC(N)=O)C(=O)N[C@@H](Cc1ccc(O)cc1)C(=O)N[C@@H](C)C(=O)N[C@@H](CCC(N)=O)C(=O)N[C@H](Cc1ccccc1)C(=O)O [compound 150] (H-YLP[dY][dQ]YAQ[dF]-OH; N-terminus assumed) | 6.55
